Tested on: Staphylococcus aureus
experimentSummary: Antimicrobial activity against methicilin- resistant Staphylococcus aureus ATCC 33591 assessed as inhibition of bacterial growth by broth dilution method
Type: functional
Overview of reported MIC across a group of molecules:
Return type: number; implicit unit µM.

Answered examples (3):
CC(C)C[C@H](NC(=O)[C@H](CCCNC(=N)N)NC(=O)CNC(=O)[C@H](CC(C)C)NC(=O)[C@@H](NC(=O)[C@@H](CCCCN)NC(=O)[C@@H](NC(=O)[C@H](CC(C)C)NC(=O)[C@H](CCCNC(=N)N)NC(=O)CNC(=O)[C@H](CC(C)C)NC(=O)[C@@H](NC(=O)[C@@H](N)CCCCN)C(C)C)C(C)C)C(C)C)C(=O)N[C@H](C(N)=O)C(C)C ... 2
CC(C)C[C@H](NC(=O)[C@H](CCCNC(=N)N)NC(=O)CNC(=O)[C@H](CC(C)C)NC(=O)[C@@H](NC(=O)[C@H](CCCCN)NC(=O)[C@@H](NC(=O)[C@H](CC(C)C)NC(=O)[C@H](CCCNC(=N)N)NC(=O)CNC(=O)[C@H](CC(C)C)NC(=O)[C@@H](NC(=O)[C@@H](N)CCCCN)C(C)C)C(C)C)C(C)C)C(=O)N[C@H](C(N)=O)C(C)C ... 1
CC(C)C[C@H](NC(=O)[C@H](CCCNC(=N)N)NC(=O)CNC(=O)[C@H](CC(C)C)NC(=O)[C@@H](NC(=O)[C@H](CCCCN)NC(=O)[C@@H](NC(=O)[C@H](CC(C)C)NC(=O)[C@H](CCCNC(=N)N)NC(=O)CNC(=O)[C@H](CC(C)C)NC(=O)[C@@H](NC(=O)[C@H](N)CCCCN)C(C)C)C(C)C)C(C)C)C(=O)N[C@H](C(N)=O)C(C)C ... 1

// below: MIC requested for another molecule
Staphylococcus aureus / MIC / `CC(C)C[C@H](NC(=O)[C@H](CCCNC(=N)N)NC(=O)CNC(=O)[C@H](CC(C)C)NC(=O)[C@@H](NC(=O)[C@@H](CCCCN)NC(=O)[C@@H](NC(=O)[C@H](CC(C)C)NC(=O)[C@H](CCCNC(=N)N)NC(=O)CNC(=O)[C@H](CC(C)C)NC(=O)[C@@H](NC(=O)[C@H](N)CCCCN)C(C)C)C(C)C)C(C)C)C(=O)N[C@H](C(N)=O)C(C)C` : value?
2

* * *

experimentSummary: Hemolytic activity in human RBC measured after 40 mins
Format: ADME, tissue-based, Erythrocyte
settings: red blood cells (RBC)
reportedProperty: HC50 at 40 min (mM)
Return type: number; implicit unit mM.

Entry `CC(C)C[C@H](NC(=O)[C@H](CCCNC(=N)N)NC(=O)CNC(=O)[C@H](CC(C)C)NC(=O)[C@@H](NC(=O)[C@@H](CCCCN)NC(=O)[C@@H](NC(=O)[C@H](CC(C)C)NC(=O)[C@H](CCCNC(=N)N)NC(=O)CNC(=O)[C@H](CC(C)C)NC(=O)[C@@H](NC(=O)[C@H](N)CCCCN)C(C)C)C(C)C)C(C)C)C(=O)N[C@H](C(N)=O)C(C)C` has what HC50 at 40 min?
1.93
